Measurement Notes: protein stability index of a GFP-peptide fusion (yeast GPS) (PSI 1-4); higher = more stable; sorted into four equal gates, so the index is relative within each strain
Experimental Conditions: doa10∆
Criterion: protein stability index meeting or surpassing 3. Met: true. Not met: false.

Is the recorded value of protein stability index equal to or greater than 3 for this sequence? GNGELYMDCLLYDLRAS [SNU114] false

How about this sequence: TDLKKIIKANQLILSDV [RET1] false

How about this sequence: ESSYTEVTKLLKNEGID [SMC4] true

How about this sequence: NNVDNKYKSGGKFSFSP [SSN2] false

How about this sequence: QLLIIEKEWENAIRIGE [SRP72] false

How about this sequence: SFQKKSNDKVVEWINPS [ISW2] true
